TEST DESCRIPTION: gradient 5% acetonitrile 3 min, to 50% in 2 min, to 85% in 15 min, held 3 min, 100 µL/min
MEASUREMENT CONDITIONS: column: Zorbax Extend-C18 2.1 x 50 mm; eluents: water / acetonitrile, 0.1% formic acid
MEASURED ENDPOINT: RP-LC retention time (s)

So, COc1cccc(C(O)CN2CCN(c3cccc(OC)c3)CC2)c1 (stereo not given) ? Its RP-LC retention time was 659

So, CN1C(=O)C2(CCN(C(=O)c3ccc(Cl)cc3)C2)c2ccccc21 (stereo not given) ? Its RP-LC retention time was 851

So, `CCc1ccccc1NS(=O)(=O)c1cc(-c2nc(C)cs2)sc1C` ? Its RP-LC retention time was 1100

So, `CCOc1ccc(NC(=O)Cn2cccc2-c2nnc(C3CC3)o2)cc1` ? Its RP-LC retention time was 847

So, `CCOC(=O)c1ccccc1NC(=O)NCCn1c(C(F)(F)F)nc2cccnc21` ? Its RP-LC retention time was 917
